Listing: pKd of selected binders
target_or_test_system: T1, human monomeric His tagged CD33 protein (human, UniProt P20138 18-259)
T1 construct: also called hCD33-His
T1 sequence (P20138 18-259 limits assumed): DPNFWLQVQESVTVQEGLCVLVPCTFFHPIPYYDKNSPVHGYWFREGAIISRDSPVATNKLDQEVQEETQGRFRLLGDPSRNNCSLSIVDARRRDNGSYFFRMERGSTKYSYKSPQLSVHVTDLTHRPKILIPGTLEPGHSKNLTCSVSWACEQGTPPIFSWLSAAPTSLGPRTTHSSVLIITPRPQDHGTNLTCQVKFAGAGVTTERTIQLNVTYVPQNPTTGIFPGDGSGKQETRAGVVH
assay_summary: ForteBio BLI or MSD-SET, IgG, monomeric antigen;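 also: BLI: antibodies captured on AHQ sensors, 100 nM antigen association 5 min, dissociation 5 min, 1:1 fit. MSD-SET: antigen fixed at 50 pM, antibody titrated, quadratic fit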
Keep it numeric: pKd is minus log10 of the concentration in mol/L.

Some entries whose results are on file:
1) C-28 (antibody, V domains shown, human IgG1) VH: EVQLVESGGGLVQPGGSLRLSCAASGFTFSSYWMSWVRQAPGKGLEWVANINQDGSEKYYVDSVKGRFTISRDNAKNSLYLQMNSLRAEDTAVYYCAREGRRTMNAFDIWGQGTMVTVSS VL: DIQMTQSPSSLSASVGDRVTITCRASQSISSYLNWYQQKPGKAPKLLIYGASSLQSGVPSRFSGSGSGTDFTLTISSLQPEDFATYYCQQGYDVPITFGGGTKVEIK: 8.40
2) C-33 (antibody, V domains shown, human IgG1) VH: EVQLVESGGGLVQPGGSLRLSCAASGFTFSSYWMSWVRQAPGKGLEWVANIKSDGSEKYYVDSVKGRFTISRDNAKNSLYLQMNSLRAEDTAVYYCAREGRPRLGYAAFDIWGQGTMVTVSS VL: DIQMTQSPSSLSASVGDRVTITCRASQSISSYLNWYQQKPGKAPKLLIYAASSLQSGVPSRFSGSGSGTDFTLTISSLQPEDFATYYCQQQYDLPITFGGGTKVEIK: 8.41
3) C-60 (antibody, V domains shown, human IgG1) VH: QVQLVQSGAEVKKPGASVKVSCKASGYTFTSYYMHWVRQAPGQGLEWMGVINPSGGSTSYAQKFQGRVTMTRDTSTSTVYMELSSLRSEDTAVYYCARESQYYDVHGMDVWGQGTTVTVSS VL: DIQLTQSPSSLSASVGDRVTITCRASQSISSYLNWYQQKPGKAPKLLIYAASSLQSGVPSRFSGSGSGTDFTLTISSLQPEDFATYYCQQSVHVPITFGGGTKVEIK: 8.03
4) C-36 (antibody, V domains shown, human IgG1) VH: EVQLVESGGGLVQPGGSLRLSCAASGFTFSSYWMSWVRQAPGKGLEWVANIKQDGSEKYYVDSVKGRFTISRDNAKNSLYLQMNSLRAEDTAVYYCARDGQYYPAYGMDVWGQGTTVTVSS VL: EIVMTQSPATLSVSPGERATLSCRASQSVSSNLAWYQQKPGQAPRLLIYGASTRATGIPARFSGSGSGTEFTLTISSLQSEDFAVYYCQQYFDLPTFGGGTKVEIK: 8.63
5) C-56 (antibody, V domains shown, human IgG1) VH: EVQLVESGGGLVQPGGSLRLSCAASGFTFSSYWMSWVRQAPGKGLEWVANIKQDGSEKYYVDSVKGRFTISRDNAKNSLYLQMNSLRAEDTAVYYCARDYGSVAGTPFDYWGQGTLVTVSS VL: DIQMTQSPSSLSASVGDRVTITCRASQSISSYLNWYQQKPGKAPKLLIYAASSLQSGVPSRFSGSGSGTDFTLTISSLQPEDFATYYCQQVLHTPLTFGGGTKVEIK: 8.30

The reported value for C-88 (antibody, V domains shown, human IgG1) VH: QLQLQESGPGLVKPSETLSLTCTVSGGSISSSSYYWGWIRQPPGKGLEWIGSIYYSGSTYYNPSLKSRVTISVDTSKNQFSLKLSSVTAADTAVYYCARLPIYYDSSGYFDYHGMDVWGQGTTVTVSS VL: EIVLTQSPATLSLSPGERATLSCRASQSVSSYLAWYQQKPGQAPRLLIYDASNRATGIPARFSGSGSGTDFTLTISSLEPEDFAVYYCQQHANHPPTFGGGTKVEIK in terms of pKd is 8.57

The recorded pKd for C-42 (antibody, V domains shown, human IgG1) VH: QLQLQESGPGLVKPSETLSLTCTVSGGSISSSSYYWGWIRQPPGKGLEWIGSIYYSGSTYYNPSLKSRVTISVDTSKNQFSLKLSSVTAADTAVYYCAREPIYRRGMDVWGQGTTVTVSS VL: EIVLTQSPATLSLSPGERATLSCRASQSVSSYLAWYQQKPGQAPRLLIYDASNRATGIPARFSGSGSGTDFTLTISSLEPEDFAVYYCQQFSNYPTFGGGTKVEIK is 7.90

Measured pKd, C-34 (antibody, V domains shown, human IgG1) VH: EVQLVESGGGLVQPGGSLRLSCAASGFTFSSYWMSWVRQAPGKGLEWVANINQDGSEKYYVDSVKGRFTISRDNAKNSLYLQMNSLRAEDTAVYYCARDHGATGPDFDLWGRGTLVTVSS VL: DIQMTQSPSSLSASVGDRVTITCRASQSISSYLNWYQQKPGKAPKLLIYGASSLQSGVPSRFSGSGSGTDFTLTISSLQPEDFATYYCQQQYLTPLTFGGGTKVEIK : 8.35

Record C-44 (antibody, V domains shown, human IgG1) VH: QLQLQESGPGLVKPSETLSLTCTVSGGSISSSSYAWGWIRQPPGKGLEWIGSIYYSGSTYYNPSLKSRVTISVDTSKNQFSLKLSSVTAADTAVYYCAREGYVAAYGMDVWGQGTTVTVSS VL: DIQMTQSPSSLSASVGDRVTITCRASQSISSYLNWYQQKPGKAPKLLIYAASSLQSGVPSRFSGSGSGTDFTLTISSLQPEDFATYYCQQAYYPPWTFGGGTKVEIK , field pKd: 8.58

pKd for C-65 (antibody, V domains shown, human IgG1) VH: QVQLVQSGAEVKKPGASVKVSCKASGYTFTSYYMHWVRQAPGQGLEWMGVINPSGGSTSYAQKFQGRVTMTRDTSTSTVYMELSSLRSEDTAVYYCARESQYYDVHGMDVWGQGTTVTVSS VL: DIQMTQSPSSLSASVGDRVTITCRASQSISSYLNWYQQKPGKAPKLLIYAASSLQSGVPSRFSGSGSGTDFTLTISSLQPEDFATYYCQQQYTLPPTFGGGTKVEIK is 8.12
